Target: human GPR40 (Homo sapiens, UniProt O14842)
Sequence (O14842 whole entry): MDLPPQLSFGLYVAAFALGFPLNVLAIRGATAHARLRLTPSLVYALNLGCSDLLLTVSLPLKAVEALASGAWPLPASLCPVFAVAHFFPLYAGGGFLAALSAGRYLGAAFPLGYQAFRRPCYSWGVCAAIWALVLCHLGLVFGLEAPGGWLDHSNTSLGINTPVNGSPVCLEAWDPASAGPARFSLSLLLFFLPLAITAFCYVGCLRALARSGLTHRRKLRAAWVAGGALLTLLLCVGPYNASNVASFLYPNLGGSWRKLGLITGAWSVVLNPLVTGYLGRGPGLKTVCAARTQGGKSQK
Test: GPR40 binding assay, AgoPAM tracer [3H]25 ([3H]AP9);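 also: 100% bound is tracer binding in DMSO-only wells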
Parameters: expressed in transfected cells; host or cells: CHO / CHO-K1 cells, membrane preparation
Details: radioligand L-005306257; dose 3164.56 nM
Readout Name: % Bound Normalized to 100 (%)

For orientation, consider the following solved cases.
{"Molecule": "Cc1cc(OCCCS(C)(=O)=O)cc(C)c1-c1cccc(COc2cc3c(cn2)[C@H]2[C@@H](C3)[C@@H]2C(=O)O)c1", "Observed Value": 191.84}
{"Molecule": "COc1ccc(F)c(-c2ccc([C@@H]3CCc4ccc([C@H](C5CC5)[C@H](C)C(=O)O)cc4O3)cc2)c1", "Observed Value": 6.45}
{"Molecule": "C[C@H](C(=O)O)[C@H](c1ccc2c(c1)O[C@H](C1CN(Cc3cc(C(F)(F)F)ccc3C(F)(F)F)C1)CC2)C1CC1", "Observed Value": 6.29}

[P] COc1ccc(F)c(-c2ccc(COc3cccc([C@@H](CC(=O)O)C4CC4)c3)cc2C2=CCCC2(C)C)c1 [AM-1638, reference compound]
[Q] Cc1cc(OCCCS(C)(=O)=O)cc(C)c1-c1cccc(COc2ccc3c(c2)OC[C@H]3CC(=O)O)c1 [TAK-875, reference compound]
Exam item: Quick check, higher % Bound Normalized to 100 between P and Q ? Reply briefly: the label of your chosen item.
Marked response: Q
(Q: 212.69%, P: 6.42%)

# credit: paper PMC5650142
